# test system: G9a (Homo sapiens)
# Sequence (Q96KQ7 1-1210): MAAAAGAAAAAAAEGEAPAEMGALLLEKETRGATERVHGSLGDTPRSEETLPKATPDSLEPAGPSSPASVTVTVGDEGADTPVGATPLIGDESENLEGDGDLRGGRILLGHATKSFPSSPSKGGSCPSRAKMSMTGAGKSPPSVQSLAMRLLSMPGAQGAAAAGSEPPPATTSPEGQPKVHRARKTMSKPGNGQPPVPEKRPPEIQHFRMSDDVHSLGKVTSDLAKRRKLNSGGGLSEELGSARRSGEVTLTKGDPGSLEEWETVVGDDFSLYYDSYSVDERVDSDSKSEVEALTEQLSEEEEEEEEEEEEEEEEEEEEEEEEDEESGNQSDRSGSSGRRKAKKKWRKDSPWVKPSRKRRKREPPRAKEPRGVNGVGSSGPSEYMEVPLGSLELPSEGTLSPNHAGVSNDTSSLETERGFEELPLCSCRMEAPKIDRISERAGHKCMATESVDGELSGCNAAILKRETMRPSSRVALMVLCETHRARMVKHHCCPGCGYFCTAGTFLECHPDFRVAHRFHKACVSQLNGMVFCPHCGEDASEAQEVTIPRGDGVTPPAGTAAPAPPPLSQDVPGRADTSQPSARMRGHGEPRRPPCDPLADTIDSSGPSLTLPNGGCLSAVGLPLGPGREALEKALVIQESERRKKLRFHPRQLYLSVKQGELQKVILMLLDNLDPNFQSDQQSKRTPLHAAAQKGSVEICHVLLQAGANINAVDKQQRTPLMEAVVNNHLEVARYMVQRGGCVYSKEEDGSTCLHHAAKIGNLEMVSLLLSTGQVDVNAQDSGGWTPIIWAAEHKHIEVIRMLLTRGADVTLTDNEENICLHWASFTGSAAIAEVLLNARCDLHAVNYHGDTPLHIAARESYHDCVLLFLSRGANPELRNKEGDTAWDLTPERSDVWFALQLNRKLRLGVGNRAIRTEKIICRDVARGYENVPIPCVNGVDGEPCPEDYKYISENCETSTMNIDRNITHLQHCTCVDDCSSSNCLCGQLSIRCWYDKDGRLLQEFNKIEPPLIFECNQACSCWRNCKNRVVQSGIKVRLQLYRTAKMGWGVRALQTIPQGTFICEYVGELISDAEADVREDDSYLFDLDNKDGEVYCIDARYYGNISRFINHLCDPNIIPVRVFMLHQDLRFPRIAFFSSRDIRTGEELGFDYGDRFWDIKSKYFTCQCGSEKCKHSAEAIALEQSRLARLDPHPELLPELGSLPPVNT
Counter-ions that a name gives are not always drawn.
Answer each item with its documented pIC50.
Give bare numbers, as −log10 of the molar value.

These recorded examples may help you get a feel for the data.
compound: COCCOc1nccc2[nH]c3cc(OCCCN4CCCC4)c(OC)cc3c12 [Compound 96, trifluoroacetate]
test system: G9a (Homo sapiens)
pIC50: 5.48
//
compound: COc1cc2c(cc1OCCCN1CCCC1)[nH]c1ccnc(-n3cccn3)c12 [Compound 77, trifluoroacetate]
test system: G9a (Homo sapiens)
pIC50: 5.60
//
compound: COc1cc2c(cc1OCCCN(C)C)[nH]c1ccncc12 [Compound 88, hydrochloride]
test system: G9a (Homo sapiens)
pIC50: 7.92

// below: pIC50 requested for another compound
Input: Look up pIC50 for this compound: COc1cc2c(cc1OCCCN1CC[C@@H](F)C1)[nH]c1ccnc(C3CC3)c12 [Compound 62, hydrochloride]
Output: 7.28
